Entry source: PubChem BioAssay (NCI)

- System: SNB-78 CNS
- procedure summary: NCI tumour cell line growth inhibition, 48 h
experimental readout: TGI

| compound | assayed target | readout value |
| --- | --- | --- |
| N#C[S-].[Nd+3].c1ccc(-c2ccccn2)nc1.c1ccc(-c2ccccn2)nc1.c1ccc(-c2ccccn2)nc1 | SNB-78 CNS | > 100 µM |
| Cc1cc(S(=O)(=O)O)c(NC(=O)C(=O)C2C=CCS2(=O)=O)cc1Cl (configuration not stated) | SNB-78 CNS | > 100 µM |
| NCCNc1cccc2ccccc12 | SNB-78 CNS | > 100 µM |
| c1ccc2c(c1)[nH]c1cnc3c4cccnc4[nH]c3c12 | SNB-78 CNS | 46.6 µM |
| Cc1cccc(C2=NC(C)(C)C(C)(C)N=C2c2cccc(C)n2)n1 | SNB-78 CNS | > 100 µM |
| COc1cc(/C=C2\CCC(CN(C)C)C2=O)ccc1OC(=O)c1ccccc1 (configuration not stated) | SNB-78 CNS | 39.9 µM |
| O=[Se](=O)c1ccccc1.O=[Se](=O)c1ccccc1.[Cu] | SNB-78 CNS | 17.1 µM |
| CCSC1=C(C)N(C=NC(C)(C)C)CC1 | SNB-78 CNS | > 100 µM |
| C1OC1CO[C@@H]1CO[C@H]2[C@@H]1OC[C@H]2OCC1CO1 (some centres not stated) | SNB-78 CNS | > 100 µM |
| Nc1c(C(=O)Nc2ccccc2)[n+]([O-])c2ccccc2[n+]1[O-] | SNB-78 CNS | 40.4 µM |
| CC(=O)O[C@H]1CCC(C)=CCC[C@@]2(C)C(CC[C@@H]2[C@@H](C)/C=C/C(C)C)c2ccc(cc2C(=O)O)C1 (some centres not stated) | SNB-78 CNS | 10.1 µM |
| O=C1NC2(CCCCC2)C2CCCCCC12 (configuration not stated) | SNB-78 CNS | > 100 µM |
